Each recorded value in this set is attributed to patent US5591615A.

- Test system: UNLipase
- Assay info: Esterification of fatty acid mixture from pressure-split beef tallow (PFA)
- Assay type: biochemical, Geotrichum candidum
- Stated conditions: HPLC or GC; pentadecanoic acid internal standard
Measurement kind: ester formation in PFA mixture

Field: example entries. Status: answers known.
CCCCCC/C=C\CCCCCCCC(=O)O :: detected
CCCCCCCC/C=C\CCCCCCCC(=O)O :: detected
CCCCCCCCCCCCCCCCCC(=O)O :: not esterified
CCCCCCCCCCCCCCCC(=O)O :: not esterified
CCCCCCCCCCCCCC(=O)O :: not esterified
CCCCCCCCCCCCCCC(=O)O :: not esterified

Below: the item to evaluate.
Query (compound): CCCCC/C=C\C/C=C\CCCCCCCC(=O)O ; field requested: ester formation in PFA mixture
detected
